# Test system: HCT-15 cell lines
# assayProtocol: MTT cytotoxicity assay, HCT-15
# Type: cell-based, human
# conditionInfo: Homo sapiens, HCT-15; 72 h (3-Days) drug exposure, MTT; read-out: IC50 HCT-15
quantityKind: IC50

COc1cccc(NC(=O)N2CCN(Cc3nc4ccccc4c(=O)[nH]3)CC2)c1 [A17]; > 50 µM
Cc1ccc(NC(=O)N2CCN(Cc3nc4ccccc4c(=O)[nH]3)CC2)cc1 [A12]; > 50 µM
COc1ccc(NC(=O)N2CCN(Cc3nc4ccccc4c(=O)[nH]3)CC2)cc1 [A18]; > 50 µM

---

# System: HCT-15 cell lines
# assayProtocol: MTT cytotoxicity assay, HCT-15
# Type: cell-based, human
# conditionInfo: Homo sapiens, HCT-15; 72 h (3-Days) drug exposure, MTT; read-out: IC50 HCT-15
pIC50: −log10 of the molar value.
quantityKind: pIC50

O=C(Nc1ccc(F)cc1F)N1CCN(Cc2nc3ccccc3c(=O)[nH]2)CC1; 4.48
Cc1ccc(Cl)cc1NC(=O)N1CCCN(Cc2nc3ccccc3c(=O)[nH]2)CC1; 5.25
O=C(Nc1c(F)cccc1Cl)N1CCN(Cc2nc3ccccc3c(=O)[nH]2)CC1; 4.38
O=C(Nc1cc(Cl)cc(Cl)c1)N1CCN(Cc2nc3ccccc3c(=O)[nH]2)CC1; 4.67
O=C(Nc1cccc(F)c1)N1CCN(Cc2nc3ccccc3c(=O)[nH]2)CC1; 4.46
